# targetOrSystem: CFTR (Homo sapiens, UniProt P13569)
# Sequence (P13569 with tags, fused parts or gaps DEL508-508): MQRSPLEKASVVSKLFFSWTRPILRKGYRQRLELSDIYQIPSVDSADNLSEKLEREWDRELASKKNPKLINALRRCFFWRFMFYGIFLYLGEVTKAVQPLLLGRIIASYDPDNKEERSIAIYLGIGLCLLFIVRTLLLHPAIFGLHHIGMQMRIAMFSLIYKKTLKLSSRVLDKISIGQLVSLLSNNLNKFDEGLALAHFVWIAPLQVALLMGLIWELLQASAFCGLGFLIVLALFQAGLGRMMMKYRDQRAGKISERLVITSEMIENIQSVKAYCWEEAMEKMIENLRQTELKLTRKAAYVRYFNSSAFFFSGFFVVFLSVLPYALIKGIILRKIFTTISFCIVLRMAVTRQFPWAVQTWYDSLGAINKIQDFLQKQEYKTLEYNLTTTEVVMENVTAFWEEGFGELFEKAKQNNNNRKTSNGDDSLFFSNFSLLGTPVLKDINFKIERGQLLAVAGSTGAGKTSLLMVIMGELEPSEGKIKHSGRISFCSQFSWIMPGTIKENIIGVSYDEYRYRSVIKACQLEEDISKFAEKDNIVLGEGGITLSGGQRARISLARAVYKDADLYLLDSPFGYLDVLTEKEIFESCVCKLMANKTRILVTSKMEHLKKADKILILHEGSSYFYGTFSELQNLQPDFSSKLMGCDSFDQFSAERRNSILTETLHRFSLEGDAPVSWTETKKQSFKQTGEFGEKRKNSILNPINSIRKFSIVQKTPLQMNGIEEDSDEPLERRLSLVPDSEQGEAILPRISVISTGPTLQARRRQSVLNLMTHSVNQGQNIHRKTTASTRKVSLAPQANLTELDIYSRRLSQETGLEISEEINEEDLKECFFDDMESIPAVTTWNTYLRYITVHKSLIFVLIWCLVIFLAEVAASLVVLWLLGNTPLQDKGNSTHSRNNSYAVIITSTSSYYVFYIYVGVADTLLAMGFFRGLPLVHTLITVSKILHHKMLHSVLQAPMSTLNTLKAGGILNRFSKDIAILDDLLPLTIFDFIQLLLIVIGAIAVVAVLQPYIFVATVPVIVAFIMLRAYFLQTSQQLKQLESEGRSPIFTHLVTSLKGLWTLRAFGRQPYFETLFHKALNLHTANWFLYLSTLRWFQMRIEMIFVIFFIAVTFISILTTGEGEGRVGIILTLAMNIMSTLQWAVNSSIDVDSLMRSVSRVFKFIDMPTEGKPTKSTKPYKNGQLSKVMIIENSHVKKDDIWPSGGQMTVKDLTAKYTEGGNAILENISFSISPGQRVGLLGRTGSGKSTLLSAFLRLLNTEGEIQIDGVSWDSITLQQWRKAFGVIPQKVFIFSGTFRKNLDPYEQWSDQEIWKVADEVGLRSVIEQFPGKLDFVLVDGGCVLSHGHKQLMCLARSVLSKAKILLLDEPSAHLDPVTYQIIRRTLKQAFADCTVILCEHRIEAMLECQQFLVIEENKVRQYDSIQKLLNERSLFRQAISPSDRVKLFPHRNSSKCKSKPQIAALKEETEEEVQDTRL
# testName: Membrane potential dye, Enteroid Assay A
# Type: cell-based
# runParameters: Table 6; human enteroid cells, 18-24 hours; acute 10 μM forskolin and 300 nM ivacaftor; read-out: Ent. A EC50
pEC50: −log10 of the molar value.
Reported pEC50 values follow for various compounds

compound: Cc1cccc(C)c1-c1cc2nc(n1)NS(=O)(=O)c1cccc(c1)C(=O)N(C)CC(c1ccc(-c3ccccc3)cn1)O2 (stereo not drawn)
targetOrSystem: CFTR (Homo sapiens, UniProt P13569)
pEC50: 5.52 to 6.00

compound: Cc1cccc(C)c1-c1cc2nc(n1)NS(=O)(=O)c1cccc(c1)C(=O)N(Cc1ccc(N3CCN(C)CC3)cc1)[C@H](CC(C)C)CO2
targetOrSystem: CFTR (Homo sapiens, UniProt P13569)
pEC50: > 6.00

compound: Cc1cccc(C)c1-c1cc2nc(n1)NS(=O)(=O)c1cccc(c1)C(=O)N(CCCC1CCOCC1)[C@H](CC(C)C)CO2
targetOrSystem: CFTR (Homo sapiens, UniProt P13569)
pEC50: > 6.00

compound: Cc1cccc(C)c1-c1cc2nc(n1)NS(=O)(=O)c1cccc(c1)C(=O)N(C)CC(c1ccc(C#N)cc1)O2 (stereo not drawn)
targetOrSystem: CFTR (Homo sapiens, UniProt P13569)
pEC50: 5.52 to 6.00

compound: Cc1cccc(C)c1-c1cc2nc(n1)NS(=O)(=O)c1cccc(c1)C(=O)N(CCC1CCOCC1)C(CCC1(C(F)(F)F)CC1)CO2 (stereo not drawn)
targetOrSystem: CFTR (Homo sapiens, UniProt P13569)
pEC50: > 6.00

compound: Cc1cccc(C)c1-c1cc2nc(n1)NS(=O)(=O)c1cccc(c1)C(=O)N(C[C@H]1CCOC(C)(C)C1)[C@H](CC(C)C)CO2
targetOrSystem: CFTR (Homo sapiens, UniProt P13569)
pEC50: > 6.00
